target: FL HMGB1 (human, UniProt P09429 1-215, C23S;C45S;C106S;E204C); assay: EMSA
Sequence (P09429 whole entry C23S/C45S/C106S/E204C): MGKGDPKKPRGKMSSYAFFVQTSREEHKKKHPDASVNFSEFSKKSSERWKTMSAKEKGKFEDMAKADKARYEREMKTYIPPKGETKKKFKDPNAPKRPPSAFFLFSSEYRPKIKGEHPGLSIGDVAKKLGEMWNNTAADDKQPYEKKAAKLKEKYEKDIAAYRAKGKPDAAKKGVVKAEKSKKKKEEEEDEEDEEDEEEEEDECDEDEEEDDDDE
observation.type: Kd
Answer with the figure and its unit, nothing else.

Task item: Recorded Kd for 18 bp dsDNA (EMSA) (dsDNA) DNA 1: CAGGCTATAAAAGGGACG DNA 2: CGTCCCTTTTATAGCCTG , please?
Reply: 10 nM

Values were extracted from paper PMC5642108.
